# ASSAY: physchem
# EXPERIMENTAL_PARAMETERS: octanol/water
# Description: Partition coefficient (logP) (HPLC)
Would you kindly list logP for each of these compounds?
Numbers only.

Known results for compounds:
COMPOUND: N#Cc1ccc(C(=O)c2ccc3n2CCC3C(=O)O)cc1 (stereo unspecified)
NUMBER: 2.21
//
COMPOUND: C#Cc1ccc(C(=O)c2ccc3n2CCC3C(=O)O)cc1 (stereo unspecified)
NUMBER: 3.33

Quick request: logP for each listed item, please.
1. CC(C)(C)C(=O)c1ccc2n1CCC2C(=O)O (stereo unspecified)
2. O=C(c1ccc(-c2ccccc2)cc1)c1ccc2n1CCC2C(=O)O (stereo unspecified)

[2.6, 4.27]

Give me logP for each of these compounds, listed below.
1. O=C(c1c(F)c(F)c(F)c(F)c1F)c1ccc2n1CCC2C(=O)O (stereo unspecified)
2. O=C(c1cccc([N+](=O)[O-])c1)c1ccc2n1CCC2C(=O)O (stereo unspecified)

1: 3.24; 2: 2.47

---

Would you mind telling me the reported selectivity ratio of each entry?
# ASSAY: Therapeutic ratio as the ratio of MED value to that of ED30 for the carrageenan rat paw assay.
# Format: ADME
# EXPERIMENTAL_PARAMETERS: read-out: Therapeutic ratio
Give bare numbers.

COMPOUND: Cc1ccc(C(=O)c2ccc3n2CCC3C(=O)O)cc1 (configuration not stated)
selectivity ratio: 8

Given the compound O=C(c1ccccc1)c1ccc2n1CCC2C(=O)O (configuration not stated) , what is its reported selectivity ratio?
18

---

# ASSAY: physchem
# EXPERIMENTAL_PARAMETERS: octanol/water
Decision: logP >= 3 yields yes (1), all other cases yield no (0).

Could you please find out whether Cc1ccc(C(=O)c2ccc3n2CCCC3C(=O)O)cc1 (centres undefined) has logP that meets 3 or exceeds it?
yes (1)

Determine whether this compound has logP no lower than 3: CCOc1ccc(C(=O)c2ccc3n2CCC3C(=O)O)cc1 (centres undefined)
yes (1)

---

For each entry below, report its pKa value.
# ASSAY: physchem
# Description: Dissociation constant (pKa)
Answers are plain numbers.

Consider the reported pKa for these compounds:
COMPOUND: O=C(c1ccccc1)c1ccc2n1CCC2C(=O)O (stereo not given)
NUMBER: 3.49

COMPOUND: O=C(c1ccc(F)cc1)c1ccc2n1CCC2C(=O)O (stereo not given)
NUMBER: 3.51

COMPOUND: O=C(c1cccc(F)c1)c1ccc2n1CCC2C(=O)O (stereo not given)
NUMBER: 3.46

COMPOUND: CCOc1cccc(C(=O)c2ccc3n2CCC3C(=O)O)c1 (stereo not given)
NUMBER: 3.46

COMPOUND: COc1ccc(C(=O)c2ccc3n2CCC3C(=O)O)cc1 (stereo not given)
NUMBER: 3.55

COMPOUND: O=C(c1cccc(Cl)c1)c1ccc2n1CCC2C(=O)O (stereo not given)
NUMBER: 3.44

COMPOUND: Cc1ccccc1C(=O)c1ccc2n1CCC2C(=O)O (stereo not given)
NUMBER: 3.44

COMPOUND: O=C(c1ccc2n1CCC2C(=O)O)C1CCC1 (stereo not given)
NUMBER: 3.54

COMPOUND: Cc1ccc(C(=O)c2ccc3n2CCC3C(=O)O)cc1 (stereo not given)
NUMBER: 3.44

COMPOUND: O=C(c1ccccc1Cl)c1ccc2n1CCC2C(=O)O (stereo not given)
NUMBER: 4.33

Can you give me pKa for all of these, one by one?
1. O=C(c1ccc2ccccc2c1)c1ccc2n1CCC2C(=O)O (stereo not given)
2. Cc1cccc(C(=O)c2ccc3n2CCC3C(=O)O)c1 (stereo not given)
3. CCOc1ccc(C(=O)c2ccc3n2CCC3C(=O)O)cc1 (stereo not given)
4. CC(C)Oc1ccc(C(=O)c2ccc3n2CCC3C(=O)O)cc1 (stereo not given)
5. CC(C)(C)C(=O)c1ccc2n1CCC2C(=O)O (stereo not given)

[3.44, 3.44, 3.46, 3.43, 3.57]

Value source: ChEMBL document CHEMBL1123117
